sequences and their reported Kd
Target: CD30 extracellular domain (UniProt P28908)
Sequence: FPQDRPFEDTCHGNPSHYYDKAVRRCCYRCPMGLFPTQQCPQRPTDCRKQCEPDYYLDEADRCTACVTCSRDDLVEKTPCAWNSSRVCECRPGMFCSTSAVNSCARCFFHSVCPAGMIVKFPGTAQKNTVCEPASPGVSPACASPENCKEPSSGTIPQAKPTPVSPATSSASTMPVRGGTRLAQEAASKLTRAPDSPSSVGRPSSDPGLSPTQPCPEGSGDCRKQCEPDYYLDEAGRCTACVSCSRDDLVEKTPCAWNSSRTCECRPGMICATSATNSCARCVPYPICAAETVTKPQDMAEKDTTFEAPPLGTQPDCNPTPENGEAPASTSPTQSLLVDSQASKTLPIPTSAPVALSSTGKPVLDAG
Experiment: FP
Settings: 5' DNA primer fd; remainder A = alpha-thio-dA, C = gemcitabine (2',2'-difluoro-dC), G = FANA-G, T = floxuridine (5-fluoro-dU); exact value only in figure

CCCCTTATTAGCGTTTGCCATTTCATGGTATTGATAAAGCTGTTGCCGATACTTGGAACAATTTCT [CD30_I30]: < 100 nM

Now for another entry.
Recorded Kd (sequence CCCCTTATTAGCGTTTGCCATAGATGTGGTAGAAGTCGTCATTTGGCGAGAAAGCTCAGTCTCAGG [CD30_I3] ): > 100 nM

====

Target: L1-CAM (CD171) extracellular domain (UniProt P32004)
Sequence (P32004 20-1120): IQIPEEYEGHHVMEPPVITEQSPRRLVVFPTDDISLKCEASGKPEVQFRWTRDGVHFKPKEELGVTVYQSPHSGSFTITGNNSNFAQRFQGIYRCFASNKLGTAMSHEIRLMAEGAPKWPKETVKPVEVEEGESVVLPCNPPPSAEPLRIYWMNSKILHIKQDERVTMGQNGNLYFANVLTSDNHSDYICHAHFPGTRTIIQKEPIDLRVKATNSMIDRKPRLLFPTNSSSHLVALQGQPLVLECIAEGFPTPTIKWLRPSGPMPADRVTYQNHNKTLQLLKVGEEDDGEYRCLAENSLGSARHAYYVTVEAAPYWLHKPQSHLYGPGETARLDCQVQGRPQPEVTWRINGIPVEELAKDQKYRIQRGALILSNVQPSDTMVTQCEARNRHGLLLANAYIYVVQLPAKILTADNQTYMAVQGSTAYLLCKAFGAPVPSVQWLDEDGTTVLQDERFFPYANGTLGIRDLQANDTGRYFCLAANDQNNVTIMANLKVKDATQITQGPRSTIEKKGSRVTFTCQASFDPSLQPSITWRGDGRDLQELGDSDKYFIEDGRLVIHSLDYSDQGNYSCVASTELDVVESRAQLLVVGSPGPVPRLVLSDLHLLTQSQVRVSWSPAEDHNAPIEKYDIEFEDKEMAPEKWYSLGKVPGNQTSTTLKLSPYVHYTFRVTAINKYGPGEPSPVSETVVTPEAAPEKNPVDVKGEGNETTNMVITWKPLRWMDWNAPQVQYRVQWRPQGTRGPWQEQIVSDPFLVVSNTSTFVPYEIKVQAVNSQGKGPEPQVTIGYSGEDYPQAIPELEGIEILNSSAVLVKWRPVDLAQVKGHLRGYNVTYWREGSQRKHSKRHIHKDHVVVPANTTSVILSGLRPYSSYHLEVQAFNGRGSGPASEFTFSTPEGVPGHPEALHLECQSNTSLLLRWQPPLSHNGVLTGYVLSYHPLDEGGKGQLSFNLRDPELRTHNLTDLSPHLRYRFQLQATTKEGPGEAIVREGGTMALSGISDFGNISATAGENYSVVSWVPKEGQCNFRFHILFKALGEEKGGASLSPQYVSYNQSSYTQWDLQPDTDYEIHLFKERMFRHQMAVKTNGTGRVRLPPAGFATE
Experiment: FP
Details: 5' DNA primer fd; remainder A = alpha-thio-dA, C = gemcitabine (2',2'-difluoro-dC), G = FANA-G, T = floxuridine (5-fluoro-dU); exact value only in figure
pKd: −log10 of the molar value.
ENDPOINT: pKd

CCCCTTATTAGCGTTTGCCAACGACGCGACGCCGTTCAACCAGATATTGAAGCAGAACGCAAAAAGA [L1-CAM_Icore]: > 7.00

For CCCCTTATTAGCGTTTGCCAGCGACGCCGTTCAACCAGATATTGAAGCAGAACGCAAAAAGAGAGATGAGATTGAGGCT [L1CAM_I1] the sequence record lists pKd as > 7.00

Reported pKd for CCCCTTATTAGCGTTTGCCATAGATGTGGTAGAAGTCGTCATTTGGCGAGAAAGCTCAGTCTCAGG [L1-CAM_I6] was > 7.00
